# study_system: breast cancer resistance protein (BCRP) (Homo sapiens, UniProt Q9UNQ0)
# Construct: endogenous in cells
# Sequence (Q9UNQ0 whole entry): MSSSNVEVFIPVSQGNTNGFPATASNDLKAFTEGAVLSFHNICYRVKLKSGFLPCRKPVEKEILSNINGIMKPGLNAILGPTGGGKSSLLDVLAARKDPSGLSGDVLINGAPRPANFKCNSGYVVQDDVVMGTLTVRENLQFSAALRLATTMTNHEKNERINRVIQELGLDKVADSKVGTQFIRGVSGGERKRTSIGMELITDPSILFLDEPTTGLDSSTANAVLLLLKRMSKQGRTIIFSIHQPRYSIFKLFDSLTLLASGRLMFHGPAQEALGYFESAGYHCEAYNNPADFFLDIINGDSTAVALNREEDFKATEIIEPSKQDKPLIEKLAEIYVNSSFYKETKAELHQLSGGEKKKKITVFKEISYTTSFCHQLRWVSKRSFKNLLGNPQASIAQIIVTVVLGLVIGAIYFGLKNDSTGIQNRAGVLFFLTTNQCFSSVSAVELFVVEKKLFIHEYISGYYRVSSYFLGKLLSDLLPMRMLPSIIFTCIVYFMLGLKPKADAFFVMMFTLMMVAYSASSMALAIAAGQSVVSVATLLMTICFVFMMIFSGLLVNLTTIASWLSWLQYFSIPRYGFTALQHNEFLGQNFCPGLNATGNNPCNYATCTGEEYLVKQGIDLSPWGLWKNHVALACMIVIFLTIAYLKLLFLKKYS
# experiment_description: BCRP transporter inhibition
pIC50: −log10 of the molar value.
I'd be grateful if you could share measured pIC50 for these entries.

Which pIC50 reading was recorded for the compound CCCO[C@H]1CC[C@H](N(C(=O)Nc2ncc([S+]([O-])CC(=O)O)s2)C2CCCCC2)CC1 (relative stereo) [Sulfoxide-1] ?
< 3.67

Item CCCO[C@H]1CC[C@H](N(C(=O)Nc2ncc(S(=O)(=O)CC(=O)O)s2)C2CCCCC2)CC1 [Sulfone-1] has what recorded pIC50?
< 3.69

Which value of pIC50 has been reported for CCCO[C@H]1CC[C@H](N(C(=O)Nc2ncc([S+]([O-])CC(=O)O)s2)C2CCCCC2)CC1 (single isomer, unassigned) [Sulfoxide-1B] in the records?
< 3.67

Which value of pIC50 has been reported for CCCO[C@H]1CC[C@H](N(C(=O)Nc2ncc(SCC(=O)O)s2)C2CCCCC2)CC1 [SM-1, reference compound] in the records?
4.71

# lookup: pIC50 of CCCO[C@H]1CC[C@H](N(C(=O)Nc2ncc([S+]([O-])CC(=O)O)s2)C2CCCCC2)CC1 (single isomer, unassigned) [Sulfoxide-1A]
~3.77
